parameter.measured: melting point (°C)
Give bare numbers, in °C.

- compound: "CC(C)CN1CCN(c2ccc(N3CCN(C(=O)N[C@H]4C5CC6CC4C[C@@](C(N)=O)(C6)C5)c4ccccc43)nc2)CC1 [compound 158]"
  parameter.measured: "melting point"
  val: 209
- compound: "CC(C)N1CCN(C(=O)c2ccc(-c3ccc(N4CCN(C(=O)NC5C6CC7CC5CC(O)(C7)C6)c5ccccc54)cc3)nc2)CC1 (stereo not drawn) [compound 27]"
  parameter.measured: "melting point"
  val: 127
- compound: "O=C(NC1C2CC3CC1CC(O)(C3)C2)N1CCN(c2ccc(N3CCN(C4CC4)CC3)cn2)c2ccccc21 (stereo not drawn) [compound 118]"
  parameter.measured: "melting point"
  val: 161
- compound: "CS(=O)(=O)N1CCC2(CCN(c3ccc(N4CCN(C(=O)NC5C6CC7CC5CC(O)(C7)C6)c5ccccc54)cc3)C2)C1 (stereo not drawn) [compound 132]"
  parameter.measured: "melting point"
  val: 127
- compound: "CS(=O)(=O)N1CC=C(c2ccc(N3CCN(C(=O)NC4C5CC6CC4CC(O)(C6)C5)c4ccccc43)cc2)CC1 (stereo not drawn) [compound 15]"
  parameter.measured: "melting point"
  val: 103

// for each compound in input: emit melting point
1. O=C(NC1C2CC3CC1CC(O)(C3)C2)N1CCN(c2ccc(N3CCN(S(=O)(=O)C4CCC4)CC3)cn2)c2ccccc21 (stereo not drawn) [compound 119]
2. CS(=O)(=O)CCN1CCN(c2ccc(N3CCN(C(=O)N[C@H]4C5CC6CC4C[C@@](C(N)=O)(C6)C5)c4ccccc43)nc2)CC1 [compound 178]
3. CC(=O)N[C@]12CC3CC(C1)[C@H](NC(=O)N1CCN(c4ccc(N5CCN(S(C)(=O)=O)CC5)cc4)c4ccccc41)C(C3)C2 [Compound No. 137]
4. CC(C)(C)N1CCC(c2ccc(N3CCN(C(=O)N[C@H]4C5CC6CC4C[C@@](C(N)=O)(C6)C5)c4ccccc43)nc2)CC1 [compound 170]
5. O=C(N[C@H]1C2CC3CC1C[C@@](O)(C3)C2)N1CCN(c2ccc(N3CCC(O)CC3)cc2)c2ccccc21 [Compound No. 51]

Reply:
188
204
250
228
131
